B1: Retinoic acid receptor beta, residues 85 to 161; numbered along this chain, P10826 (parent)
chain: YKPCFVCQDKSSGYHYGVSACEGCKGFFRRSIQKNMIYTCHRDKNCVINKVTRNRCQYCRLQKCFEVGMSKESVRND

variants of: B1; test: abundance fitness (aPCA) (normalised: wild type 0, dead -1); higher = more abundant; growth selection in yeast, the domain comes from the species named; details: Homo sapiens
REPORTED ENDPOINT: abundance fitness
Note: the reply should be a number with no unit written.

Take a look at these entries with their results.
S12D : 0.16
Q57C : 0.078
T39C : -0.047

Switching to the query record.
Using the record for C24L , report its abundance fitness.
-0.624
